Quick list: protein stability index per entry.
B1: CSNK1G1 (parent)
chain: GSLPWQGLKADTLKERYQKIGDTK

Variants of: B1
test: protein stability index of a GFP-peptide fusion (GPS, HEK-293T) (PSI 1-6); higher = more stable;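 further: lentivirally expressed fusions sorted by FACS into six bins by GFP to DsRed ratio, PSI derived from sequencing read proportions per bin multiplied by bin number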
assay.context: c terminus: a fixed tail appended
Number, no unit, nothing else.

# example entries with known answers
K14E :: 4.23
G7S :: 4.01
K24G :: 3.79

// field: protein stability index; key: Q18S ; value = 4.35

// field: protein stability index; key: R16I ; value = 3.26
